Test system: Enterobacter cloacae
Test: In vitro antibacterial activity measured as minimum inhibitory concentration, was evaluated on Enterobacter cloacae ATCC 23355 (Ecl).
Type: functional
Settings: Enterobacter cloacae, ATCC 23355; read-out: MIC
Measured MIC accompanies every entry in the list below.
Numbers only here, please. The scale is µg/mL.

- COMPOUND: "CC1C(N)CN1c1cc2c(cc1F)c(=O)c(C(=O)O)cn2C1CC1 (configuration not stated)"
  MEASUREMENT_UNIT: "µg/mL"
  ENDPOINT_RESULT: 0.03
- COMPOUND: "C[C@@H]1[C@@H](N)CN1c1c(F)c(N)c2c(=O)c(C(=O)O)cn(-c3ccc(F)cc3F)c2c1F"
  MEASUREMENT_UNIT: "µg/mL"
  ENDPOINT_RESULT: 0.12
- COMPOUND: "C[C@@H](N)C(=O)N[C@@H]1CN(c2nc3c(cc2F)c(=O)c(C(=O)O)cn3C2CC2)[C@H]1C"
  MEASUREMENT_UNIT: "µg/mL"
  ENDPOINT_RESULT: 0.25
- COMPOUND: "C[C@@H]1[C@@H](N)CN1c1c(F)c(N)c2c(=O)c(C(=O)O)cn(C3CC3)c2c1F"
  MEASUREMENT_UNIT: "µg/mL"
  ENDPOINT_RESULT: 0.015
- COMPOUND: "C[C@H](N)C(=O)N[C@@H]1CN(c2nc3c(cc2F)c(=O)c(C(=O)O)cn3C2CC2)[C@H]1C"
  MEASUREMENT_UNIT: "µg/mL"
  ENDPOINT_RESULT: 0.12
- COMPOUND: "C[C@H]1COc2c(N3CC(N)C3)c(F)cc3c(=O)c(C(=O)O)cn1c23"
  MEASUREMENT_UNIT: "µg/mL"
  ENDPOINT_RESULT: 0.015
- COMPOUND: "CCn1cc(C(=O)O)c(=O)c2cc(F)c(N3C[C@H](N)[C@H]3C)c(F)c21"
  MEASUREMENT_UNIT: "µg/mL"
  ENDPOINT_RESULT: 0.12
- COMPOUND: "Cc1c(F)c(N2C[C@H](N)[C@H]2C)nc2c1c(=O)c(C(=O)O)cn2C1CC1"
  MEASUREMENT_UNIT: "µg/mL"
  ENDPOINT_RESULT: 0.12

## Task # MIC lookup, item "C[C@H]1[C@@H](N)CN1c1c(F)cc2c(=O)c(C(=O)O)cn(C3CC3)c2c1F"
## Result 0.25

## Task # MIC lookup, item "CCn1cc(C(=O)O)c(=O)c2c(N)c(F)c(N3C[C@H](N)[C@H]3C)c(F)c21"
## Result 0.06

----------
Test system: Escherichia coli
Assay: In vitro antibacterial activity measured as minimum inhibitory concentration, was evaluated on Escherichia coli ATCC 23559(Ec).
Type: functional
Settings: Escherichia coli, ATCC 23559; read-out: MIC
READOUT_LABEL: MIC (µg/mL)
Numbers only here, please. The scale is µg/mL.

Some compounds with known MIC results, for comparison:
- COMPOUND: "CC(C)C[C@H](N)C(=O)N[C@@H]1CN(c2nc3c(cc2F)c(=O)c(C(=O)O)cn3C2CC2)[C@H]1C"
  TARGET_OR_SYSTEM: "Escherichia coli"
  MEASUREMENT_UNIT: "µg/mL"
  MIC: 0.06
- COMPOUND: "CCNCC1(C)CN(c2c(F)cc3c(=O)c(C(=O)O)cn4c3c2OC[C@@H]4C)C1"
  TARGET_OR_SYSTEM: "Escherichia coli"
  MEASUREMENT_UNIT: "µg/mL"
  MIC: 0.25
- COMPOUND: "CC1C(N)CN1c1cc2c(cc1F)c(=O)c(C(=O)O)cn2C1CC1 (configuration not stated)"
  TARGET_OR_SYSTEM: "Escherichia coli"
  MEASUREMENT_UNIT: "µg/mL"
  MIC: 0.015
- COMPOUND: "C[C@H]1COc2c(N3CC(C)(N)C3)c(F)cc3c(=O)c(C(=O)O)cn1c23"
  TARGET_OR_SYSTEM: "Escherichia coli"
  MEASUREMENT_UNIT: "µg/mL"
  MIC: 0.015
- COMPOUND: "CC1C(N)CN1c1c(F)cc2c(=O)c(C(=O)O)cn3c2c1OC[C@@H]3C (single isomer, unassigned)"
  TARGET_OR_SYSTEM: "Escherichia coli"
  MEASUREMENT_UNIT: "µg/mL"
  MIC: 0.015
- COMPOUND: "C[C@@H]1[C@@H](N)CN1c1cc2c(cc1F)c(=O)c(C(=O)O)cn2C1CC1"
  TARGET_OR_SYSTEM: "Escherichia coli"
  MEASUREMENT_UNIT: "µg/mL"
  MIC: 0.25

Attention now shifts to the item below.
## Task # MIC lookup, item C[C@H]1[C@H](N)CN1c1c(F)cc2c(=O)c(C(=O)O)cn(C3CC3)c2c1Cl (single isomer, unassigned)
## Result 0.015

meta.source: ChEMBL document CHEMBL1128288
